Origin of the recorded values: patent US20250195670A1

test system: Panc-1 cells; assay: Panc-1 cell growth (optical density); assay type: cell-based; conditions: Homo sapiens
RECORDED_ENDPOINT: pIC50
Give only the number. pIC50 is defined as minus log10 of concentration in molar units.

Q: Please report the recorded pIC50 for CN(C)C(=N)NC(=N)N [metformin, 1,1-dimethylbiguanide] .
Result: 2.28
